Assay: NCI Yeast Anticancer Drug Screen. Data for the rad50 strain (AID 155)
Settings: S. cerevisiae rad50 strain growth inhibition; at 50.0 µM
The panel holds about 79,000 compounds, 15% with a hit somewhere; the sample as a whole holds those more often. Active and inactive are the calls of the source. Cut-off read from the data, not from the text of the source: active = growth inhibition above about 70%; inactive = the rest.
Possible outcomes: true for active, false for inactive

INSERT INTO results (molecule, answer_label) VALUES
  ('O=C(O)C1(Cc2ccc3c(c2)CCC3)Cc2ccccc2C1', 'true'),
  ('COc1cc2c(cc1O)-c1c(cnn1-c1ccccc1)CCC2', 'true'),
  ('COc1cc(C2c3cc4c(cc3[C@@H](OCCN)[C@H]3COC(=O)C23)OCO4)cc(OC)c1O (stereo partly specified)', 'false'),
  ('N#CCC(=O)N/N=C(/CC1(O)C(=O)Nc2c(Cl)cc(Cl)cc21)c1ccccc1 (stereo unspecified)', 'false'),
  ('ICCCCCCCCCC[n+]1ccc2ccccc2c1', 'true'),
  ('Cc1[nH]c(=O)[nH]c(=S)c1C(=O)NC1C2CCCCC2NC2CCCCC21 (stereo unspecified)', 'true'),
  ('COc1ccc(-c2n[nH]c(C(F)(F)F)c2N=NN(C)C)cc1OC', 'true'),
  ('CCOC(=O)c1[nH]cnc1/N=N/c1nc(O)c(C#N)[nH]1', 'false'),
  ('CCCN1CN(C(C(=O)N[C@@H]2C(=O)N3C(C(=O)O)=C(C)CSC23)c2ccccc2)CSC1=S (stereo partly specified)', 'false'),
  ('Oc1ccccc1C1N(Cc2ccc(Cl)cc2)CCN1Cc1ccc(Cl)cc1', 'false'),
  ('COc1ccc(NCCN(C)C)c2c(=O)c3ccccc3sc12', 'true'),
  ('CN(C)CC1CCc2c(ccc3ccccc23)C1=O (stereo unspecified)', 'false'),
  ('O=c1oc2ccccc2c(O)c1C1=N/C(=N/N=C/c2ccc(Cl)cc2)SC1', 'false'),
  ('CCCOc1cc(C(=O)OCCN(CC)CC)cc(OCCC)c1OCCC', 'false'),
  ('O=C(Nn1cc(F)c(=O)[nH]c1=O)C12CC3CC(CC(C3)C1)C2', 'false'),
  ('O=[N+]([O-])c1ccc(/C(=C\c2ccccc2)Cn2ccnc2)cc1', 'true'),
  ('O=Cc1nc2c3cccnc3ccc2n1Cc1ccccc1', 'false'),
  ('CC1C(CCC(=O)O)OC2CC3C4CCC5CC(O)CCC5(C)C4CCC3(C)C21 (stereo unspecified)', 'true'),
  ('CN(C)CC1CCCCCC(Br)C1=O (stereo unspecified)', 'false'),
  ('COc1ccccc1NC(c1ccccc1)c1ccc2cccnc2c1O (stereo unspecified)', 'true'),
  ('CCN(CC)CCCNc1cc(C)nc2c1ccc1c2ccc2c(NCCCN(CC)CC)cc(C)nc21', 'false'),
  ('COc1ccc(C2c3cc4c(cc3OC(N3CCCC3)C2C)OCO4)c(OC)c1 (stereo unspecified)', 'true'),
  ('ClCc1ccccc1Cc1ccccc1', 'true'),
  ('CC(O)c1c2ccccc2cc2ccccc12 (stereo unspecified)', 'true'),
  ('CCOc1nc(N)nc(C)c1N=Nc1ccc(Cl)cc1Cl', 'true'),
  ('CC(C)C1=CC23CCC4C(C)(C(=O)O)CCCC4(C)C2CC1C1C(=O)C=CC(=O)C13 (stereo unspecified)', 'true'),
  ('COC(=O)c1c[nH]c2ccc(Br)cc12', 'false'),
  ('O=C(N/C(=C\c1cc(Cl)ccc1Cl)c1nc2ccc(Cl)cc2[nH]1)c1ccccc1', 'true'),
  ('Cc1ccc(NC(=S)SCc2ccc3c(c2)OCO3)cc1Br', 'true'),
  ('COc1ccc(-c2[nH]c(-c3ccc(OC)cc3)c(-c3ccccn3)c2-c2ccccn2)cc1', 'true'),
  ('Cc1ccc2c(c1)-c1c(c3c(c4c1-c1cc(C)ccc1CC4)C(=O)OC3=O)CC2', 'false'),
  ('[O-][n+]1c(-c2ccccc2)c(Cl)c(-c2ccccc2)n1O', 'true'),
  ('Cc1cccc2ccc3cc(CC(=O)O)c4cccc(C)c4c3c12', 'true'),
  ('CCCOC(=O)CCCC(=O)N(CC)CC', 'false'),
  ('Cc1cc(N(CCOS(C)(=O)=O)CCOS(C)(=O)=O)ccc1C=Nc1cccc(Cl)c1', 'true'),
  ('Cc1c2cnccc2c(C)c2c1c1ccccc1n2CCCN', 'true'),
  ('COc1ccccc1NC(=O)CSC(N)=O', 'true'),
  ('COc1ccc(C2=NN(c3ccccc3)C[N+](c3ccc(OC)cc3)=N2)cc1', 'true'),
  ('CC[n+]1cnc(N)c2c(-c3ccc(Cl)cc3)cn(-c3ccc(C)cc3)c21', 'true'),
  ('CC1C(C(=O)O)CC([N+](=O)[O-])C(Cl)C1[N+](=O)[O-] (stereo unspecified)', 'false'),
  ('CCCCN(CCC(=O)O)c1ccc(/C=C\c2ccnc3ccccc23)cc1', 'true'),
  ('O=C(c1ccc(F)cc1)c1ccc(Cl)cc1Cl', 'true'),
  ('CCCCCCCCCCCCCCCCP(=O)([O-])OCC[N+](C)(C)C', 'true'),
  ('C=Cc1ccccc1C1(O)C=CC(OC)(OC)C=C1', 'false'),
  ('COc1ccc(C2COc3cc(O)c(O)cc3C2)cc1OC (stereo unspecified)', 'false'),
  ('Nc1ccc(-c2nc3ccccc3s2)cc1', 'true');
